All values here come from patent US9120749B2.

Items are presented alongside their recorded IC50.
# Measured on: UniProt:Q14680
# Measurement protocol: Kinase assay: MELK activity, phosphorylation of FITC-labeled histone H3 peptide measured by IMAP fluorescence polarization
# Format: biochemical
# Condition summary: dihydrochloride; read-out: IC50 (μM) (kinase assay)
Structures can show the parent of a compound that is named as a salt.
The reply should be a number in µM, with the unit left off.

Quick note, IC50 for CN[C@H]1CC[C@H](Nc2c(C(C)=O)cnc3ccc(-c4cc(Cl)c(O)c(OC)c4)cc23)CC1 [Example 543, dihydrochloride] landed at 0.0018

Measured IC50, CC(=O)c1cnc2ccc(-c3cc(F)c(O)c(Cl)c3)cc2c1N[C@H]1CC[C@H](CCN(C)C)CC1 [Example 742, dihydrochloride] : 0.0044

IC50 reported for this compound CCC(=O)c1cnc2ccc(-c3cc(Cl)c(O)c(Cl)c3)cc2c1N[C@H]1CC[C@H](CN(C)C)CC1 [Example 716, dihydrochloride] : 0.0016

// IC50 lookup, compound = CCCC(=O)c1cnc2ccc(-c3cc(Cl)c(O)c(Cl)c3)cc2c1Nc1ccc(CN(C)C)cc1 [Example 531, dihydrochloride] , result: 0.0052

* * *

# Measured on: MELK (Homo sapiens)
# Measurement protocol: Kinase assay: MELK activity, phosphorylation of FITC-labeled histone H3 peptide measured by IMAP fluorescence polarization
# Type: biochemical
# Condition summary: read-out: IC50 (μM) (kinase assay)
Class membership depends on IC50 alone; the intervals are lower segment (below 0.003 µM), middle segment (0.003 µM to below 0.02 µM), upper segment (0.02 µM or more)

Enquiry: Any idea which band COc1cc(-c2ccc3ncc(C(=O)C(C)C)c(Nc4ccc(N5CCNCC5)nc4)c3c2)cc(Cl)c1O is in?
Return: middle segment

Enquiry: Entry CN1CCCC(n2cc(Nc3c(C(=O)C4CC4)cnc4ccc(-c5cc(F)c(O)c(Cl)c5)cc34)cn2)C1 (stereo not drawn) belongs to which category?
Return: lower segment

Enquiry: Form: Item = CC(C)(N)c1ccc(Nc2c(C(=O)C3CC3)cnc3ccc(-c4cc(Cl)c(O)c(Cl)c4)cc23)cc1 ; Class = ?
Return: lower segment

Enquiry: State the band of O=C(c1cnc2ccc(-c3cc(Cl)c(O)c(Cl)c3)cc2c1Nc1ccc(CN2CCC(F)(F)C2)cc1)C1CC1
Return: upper segment

Enquiry: The entry to classify is CN(C)Cc1ccc(Nc2c(C(=O)C3CC3)cnc3cc(F)c(-c4cc(F)c(O)c(Cl)c4)cc23)cc1 ; which class holds it?
Return: upper segment

Enquiry: Lab note: which band did O=C(c1cnc2ccc(-c3cc(F)c(O)c(Cl)c3)cc2c1N[C@H]1CC[C@H](CN2CCCC2)CC1)C1CC1 land in?
Return: middle segment

Enquiry: The entry to classify is COc1cc(-c2ccc3ncc(C(C)=O)c(N[C@H]4CC[C@H](CN5CCC(O)C5)CC4)c3c2)cc(Cl)c1O (stereo partly drawn) ; which class holds it?
Return: lower segment

Enquiry: # classify by IC50 band: O=C(c1cnc2ccc(-c3cc(F)c(O)c(Cl)c3)cc2c1Nc1ccc(N2CCNCC2)cn1)C1CC1
Return: middle segment

Enquiry: Which bin should I file CN[C@H]1CC[C@H](Nc2c(C(=O)C3CC3)cnc3ccc(-c4cnc(C#N)nc4)cc23)CC1 under?
Return: lower segment

* * *

# Measured on: MELK (Homo sapiens, UniProt Q14680)
# Sequence (Q14680 whole entry, looked up): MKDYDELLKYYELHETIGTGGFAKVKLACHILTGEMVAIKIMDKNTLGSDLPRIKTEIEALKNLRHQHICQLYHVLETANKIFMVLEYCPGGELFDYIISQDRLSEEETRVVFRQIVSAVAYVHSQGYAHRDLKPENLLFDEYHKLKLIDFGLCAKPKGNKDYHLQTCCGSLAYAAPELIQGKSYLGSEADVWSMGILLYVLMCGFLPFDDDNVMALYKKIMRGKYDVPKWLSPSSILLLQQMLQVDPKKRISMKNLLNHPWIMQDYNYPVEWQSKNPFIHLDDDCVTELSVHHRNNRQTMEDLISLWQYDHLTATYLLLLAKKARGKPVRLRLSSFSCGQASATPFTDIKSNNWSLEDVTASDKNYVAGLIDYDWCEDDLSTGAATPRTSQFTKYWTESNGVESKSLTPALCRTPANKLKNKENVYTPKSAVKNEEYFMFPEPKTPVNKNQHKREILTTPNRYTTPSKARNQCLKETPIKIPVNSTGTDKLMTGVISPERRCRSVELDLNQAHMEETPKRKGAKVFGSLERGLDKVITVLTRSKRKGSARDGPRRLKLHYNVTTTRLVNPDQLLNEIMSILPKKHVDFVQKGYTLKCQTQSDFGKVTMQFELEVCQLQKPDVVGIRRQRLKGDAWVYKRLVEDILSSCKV
# Measurement protocol: Kinase assay: MELK activity, phosphorylation of FITC-labeled histone H3 peptide measured by IMAP fluorescence polarization
# Type: biochemical
# Condition summary: read-out: IC50 (μM) (kinase assay)
Reported endpoint: IC50 (µM)
Only the number, expressed in µM, is required.

// worked examples, IC50 included
compound="COc1cc(-c2ccc3ncc(C(=O)C4CC4)c(N[C@H]4CC[C@H](CN5CCC(O)C5)CC4)c3c2)cc(Cl)c1O (stereo partly shown)" readout_units=µM meas_value=0.0023
compound=CN1CCN(c2ccc(Nc3c(C(=O)C4CC4)cnc4ccc(-c5cc(F)c(O)c(F)c5)cc34)cn2)CC1 readout_units=µM meas_value=0.021
compound="COc1cc(-c2ccc3ncc(C(=O)C4CC4)c(NC4CCC(N5CCC(F)(F)C5)CC4)c3c2)cc(Cl)c1O (stereo not shown)" readout_units=µM meas_value=0.29
compound="COC1CCN(C2CCC(Nc3c(C(=O)C4CC4)cnc4ccc(-c5cc(F)c(O)c(Cl)c5)cc34)CC2)C1 (stereo not shown)" readout_units=µM meas_value=0.0035

IC50 recorded for this compound, COc1cc(-c2ccc3ncc(C(=O)C4CC4)c(Nc4ccc(NC5CCNC5)nc4)c3c2)cc(Cl)c1O (stereo not shown) , is 0.0033

Record CC(=O)c1cnc2ccc(-c3cc(Cl)c(O)c(Cl)c3)cc2c1Nc1ccc(CN2CCN(C)CC2)cc1 , field IC50: 0.0082

Just so you know, measured IC50 for NC1CCCN(c2ccc(Nc3c(C(=O)C4CC4)cnc4ccc(-c5cc(Cl)c(O)c(Cl)c5)cc34)cn2)C1 (stereo not shown) came out at 0.0044

* * *

# Test system: HT-1197 cells
# Measurement protocol: Cell-based assay: anti-proliferative activity, Cell Counting Kit-8, 72 hours (HT-1197, negative control without MELK expression)
# Condition summary: Homo sapiens, HT1197, 72 h, HT1197 cells (negative control, no MELK expression), 72 hours
Reported endpoint: IC50 (µM)
Your answer should be a plain number; it is taken to be in µM.

molecule=CN(C)Cc1ccc(Nc2c(C(=O)C3CC3)cnc3ccc(-c4cc(Cl)c(O)c(Cl)c4)cc23)cn1 measured_on="HT-1197 cells" meas_value=2.8
molecule=CC(=O)c1cnc2ccc(-c3cc(F)c(O)c(Cl)c3)cc2c1N[C@H]1CC[C@H](CCN(C)C)CC1 measured_on="HT-1197 cells" meas_value=2
molecule="CC(=O)c1cnc2ccc(-c3cc(F)c(O)c(Cl)c3)cc2c1N[C@H]1CC[C@H](CN2CCCC(N)C2)CC1 (stereo partly shown)" measured_on="HT-1197 cells" meas_value=2.7

Below: the item to evaluate.
CCOc1cc(-c2ccc3ncc(C(=O)C4CC4)c(N4CCC(CN(C)C)CC4)c3c2)cc(Cl)c1O has a reported IC50 of 2.4

* * *

# Measured on: MELK (Homo sapiens, UniProt Q14680)
# Measurement protocol: Kinase assay: MELK activity, phosphorylation of FITC-labeled histone H3 peptide measured by IMAP fluorescence polarization
# Type: biochemical
# Condition summary: MELK kinase assay, IMAP fluorescence polarization, 50 micro-M ATP; read-out: IC50 (μM) (kinase assay)
Structures can show the parent of a compound that is named as a salt.
Reported IC50 by item:
The reply should be a number in µM, with the unit left off.

Illustrative cases are given below, each with its answer.
compound="CC(=O)c1cnc2ccc(-c3ccc4nc[nH]c4c3)cc2c1Nc1ccc(OCCN(C)C)nc1 [Example 902, hydrochloride]" meas_value=0.042
compound="CC(=O)c1cnc2cc(C)c(-c3cc(F)c(O)c(Cl)c3)cc2c1Nc1ccc(N2CCN(C)CC2)nc1 [Example 856, hydrochloride]" meas_value=0.46
compound="CC(=O)c1cnc2ccc(-c3cc(F)c(O)c(Cl)c3)cc2c1N[C@H]1CC[C@H](NC(=O)CN(C)C)CC1 [Example 876]" meas_value=0.0088
compound="CS(=O)(=O)c1cnc2ccc(-c3cc(F)c(O)c(Cl)c3)cc2c1Nc1cccc(CCN2CCCC2)c1 [Example 879, hydrochloride]" meas_value=0.011

Notebook: CC(=O)c1cnc2ccc(-c3cc(F)c(O)c(Cl)c3)cc2c1N[C@H]1CC[C@H](NC(=O)[C@H](C)N)CC1 (stereo in doubt) [Example 878] , IC50 read as 0.0079

Consider CC(=O)c1cnc2ccc(-c3cc(Cl)c(O)c(Cl)c3)cc2c1N[C@H]1CC[C@H](NC(=O)C2CCCN2C)CC1 (stereo partly drawn) [Example 875, hydrochloride] . Its measured IC50 is 0.0035

* * *

# Measured on: MELK (Homo sapiens, UniProt Q14680)
# Measurement protocol: Kinase assay: MELK activity, phosphorylation of FITC-labeled histone H3 peptide measured by IMAP fluorescence polarization
# Assay type: biochemical
# Condition summary: MELK kinase assay, IMAP fluorescence polarization, 50 micro-M ATP; read-out: IC50 (μM) (kinase assay)
Structures can show the parent of a compound that is named as a salt.
// boundary case: IC50 equal to 0.009 µM maps to false (0); strictly smaller maps to true (1)

compound="CN1CCC(n2cc(Nc3c(S(C)(=O)=O)cnc4ccc(-c5cc(F)c(O)c(Cl)c5)cc34)cn2)CC1 [Example 900, hydrochloride]" category_label="true (1)"
compound="COc1cc(-c2ccc3ncc(C(=O)C4CCCC4)c(Nc4cccc(CCN5CCCC5)c4)c3c2)cc(Cl)c1O [Example 924, hydrochloride]" category_label="false (0)"
compound="CC(=O)c1cnc2ccc(-c3cc(Cl)c(O)c(Cl)c3)cc2c1N[C@H]1CC[C@H](N)CC1 [Example 939, hydrochloride]" category_label="true (1)"

Enquiry: In the record for CC(=O)c1cnc2ccc(-c3cc(F)c(O)c(Cl)c3)cc2c1N[C@H]1CC[C@H](NC(=O)[C@@H]2CCCN2)CC1 , is IC50 less than 0.009 µM?
Return: false (0)

Enquiry: # check: IC50 < 0.009 µM for CC(=O)c1cnc2ccc(-c3ccc(-c4ccc(O)cc4)cc3)cc2c1Nc1cccc(CCN2CCCC2)c1 [Example 888, hydrochloride]
Return: false (0)
